Source of measurements: the supplement of paper PMC6757056

Below is a list of entries, each paired with its recorded normalized RNA/DNA level with ligand (log10) value.
B1: library; a variant is named by its letters at N, in order (parent)
chain: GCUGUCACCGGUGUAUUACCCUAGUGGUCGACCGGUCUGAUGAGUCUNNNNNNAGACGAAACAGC

variants of: B1; test: normalized RNA/DNA level with ligand (relative to sTRSVctl = 100) (log10 (% of sTRSVctl)); ligand: hypoxanthine (xanthine aptamer); higher = less ribozyme self-cleavage, higher mRNA level; settings: ligand concentration (+) RNA-Seq: 5 mM, HEK293T, reporter: mCherry (pCS4076), ligand present: yes
Please respond with just the number, no unit label.

Examples from the recorded data:
Mutant Label | Measured Result
UGUUUC | 1.98
UUGCUU | 1.98
AUACCA | 1.91
CGUGGG | 1.85
GUCUCG | 1.94

query: Find the recorded normalized RNA/DNA level with ligand (log10) belonging to CCUCCA and report it.
result: 1.94

query: Item under review: GCGACG . Reported normalized RNA/DNA level with ligand (log10)?
result: 1.81
